Attribution: patent US10669272B2

MEASURED_ON: human DGKα (Homo sapiens, UniProt P23743)
Construct: TVMV protease cleavage site (C); Hexa-His (C); made in house; host or cells: Sf9 insect cells (baculovirus, Bac-to-Bac)
Sequence (P23743 with tags, fused parts or gaps): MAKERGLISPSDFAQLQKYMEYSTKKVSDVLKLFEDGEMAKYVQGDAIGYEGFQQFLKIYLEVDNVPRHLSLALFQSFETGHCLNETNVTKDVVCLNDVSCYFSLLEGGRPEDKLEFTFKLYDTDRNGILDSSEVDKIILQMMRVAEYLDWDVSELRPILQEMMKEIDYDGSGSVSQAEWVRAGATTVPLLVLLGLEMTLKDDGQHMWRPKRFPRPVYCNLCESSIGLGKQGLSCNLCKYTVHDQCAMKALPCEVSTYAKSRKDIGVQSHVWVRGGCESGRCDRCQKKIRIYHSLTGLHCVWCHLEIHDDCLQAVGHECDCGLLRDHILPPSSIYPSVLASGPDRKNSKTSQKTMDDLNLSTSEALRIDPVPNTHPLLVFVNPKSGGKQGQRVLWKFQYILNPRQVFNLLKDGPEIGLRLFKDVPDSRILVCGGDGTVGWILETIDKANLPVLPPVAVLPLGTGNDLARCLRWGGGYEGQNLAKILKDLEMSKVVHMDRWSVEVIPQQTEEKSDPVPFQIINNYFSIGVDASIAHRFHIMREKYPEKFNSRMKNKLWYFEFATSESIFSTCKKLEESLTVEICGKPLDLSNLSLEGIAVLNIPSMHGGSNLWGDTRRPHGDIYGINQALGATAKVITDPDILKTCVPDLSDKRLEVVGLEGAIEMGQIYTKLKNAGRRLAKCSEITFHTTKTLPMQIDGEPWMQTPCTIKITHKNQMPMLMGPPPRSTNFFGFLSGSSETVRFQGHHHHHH
METHOD: DGKα LIPGLO assay (extruded liposome substrate), in vitro DGK inhibition
Format: biochemical
RUN_PARAMETERS: liposome (LIPGLO) assay; read-out: DGKa LIPGLO IC50
pIC50: −log10 of the molar value.
Would you mind sorting the entries by pIC50 according to these classes? group A (below 5), group B (5 to below 6), group C (6 or more)

compound="CSCC(c1ccc(F)cc1)N1C[C@H](C)N(c2cc(=O)n(C)c3ccc(C#N)nc23)C[C@H]1C (single isomer, unassigned) [Example 1318]" label_class="group C"
compound="CCOC[C@@H]1CN(c2cc(=O)n(C)c3ccc(C#N)nc23)[C@@H](C)CN1C(C)c1ccc(OC(F)(F)F)cc1 (single isomer, unassigned) [Example 1398]" label_class="group B"
compound="C[C@@H]1CN(c2cc(=O)n(C)c3ccc(C#N)nc23)[C@@H](C)CN1C(Cc1nc(C2CC2)no1)c1ccc(F)cc1 (single isomer, unassigned) [Example 1327]" label_class="group C"
compound="Cc1ccc(C(c2cccc(Cl)c2)N2C[C@H](C)N(c3cc(=O)n(C)c4ccc(C#N)nc34)C[C@H]2C)nc1 (single isomer, unassigned) [Example 372]" label_class="group C"
compound="C[C@@H]1CN(c2cc(=O)n(C)c3ccc(C#N)nc23)[C@@H](C)CN1C(c1ccc(F)cc1)c1nccn1C (stereo partly drawn) [Example 714]" label_class="group A"
compound="C[C@@H]1CN(c2cc(=O)n(C)c3ccc(C#N)nc23)[C@@H](C)CN1Cc1ccc(OC(F)(F)F)cc1 [Example 609]" label_class="group C"
compound="COC[C@H]1CN(c2cc(=O)n(C)c3ccc(C#N)nc23)[C@H](C)CN1C(c1ccc(F)cc1)c1ccc(F)cc1 [Example 1183]" label_class="group A"
compound="C[C@@H]1CN(c2cc(=O)n(C)c3ccc(C#N)nc23)[C@@H](C)CN1C(c1ccc(F)cc1)c1ccccc1N1CCOCC1 (single isomer, unassigned) [Example 665]" label_class="group A"
compound="Cn1c(=O)cc(N2CCN(C(c3ccc(F)cc3)c3ccc(F)cc3)CC2C#N)c2nc(C#N)ccc21 (single isomer, unassigned) [Example 143]" label_class="group B"
